Recorded values, source ChEMBL document CHEMBL1152855.

Overview of recorded growth, % of control at 10 µM for various compounds
test system: HL-60(TB); assay: Growth inhibition of human HL-60(TB) cells at 10 uM after 48 hrs by sulforhodamine B assay; assay type: functional; conditions: HL-60, 48 h, read-out: GI
Test readout: growth, % of control at 10 µM (%)

1) [3H]N1C(=O)[C@@]2(c3ccccc31)N(C)C[C@@H](c1cccs1)[C@@]21Cc2ccccc2C1=O
89.7
2) [3H]N1C(=O)[C@@]2(c3ccccc31)N(C)C[C@@H](c1ccc(OC)cc1)[C@@]21Cc2ccccc2C1=O
72.8
3) [3H]C([3H])([3H])N1C(=O)[C@@]2(c3ccccc31)N(C)C[C@@H](c1cccs1)[C@@]21Cc2ccccc2C1=O
70
4) [3H]C([3H])([3H])N1C(=O)[C@@]2(c3ccccc31)N(C)C[C@@H](c1ccc(OC)cc1)[C@@]21Cc2ccccc2C1=O
170
5) [3H]N1C(=O)[C@@]2(c3ccccc31)N(C)C[C@@H](c1ccc(Cl)cc1)[C@@]21Cc2ccccc2C1=O
76.7

----------
test system: MOLT-4; test: Growth inhibition of human MOLT4 cells at 10 uM after 48 hrs by sulforhodamine B assay; assay type: functional; conditions: MOLT-4, 48 h, values are per cent of control
Overview of recorded growth, % of control at 10 µM for various compounds
Test readout: growth, % of control at 10 µM

1) [3H]C([3H])([3H])N1C(=O)[C@@]2(c3ccccc31)N(C)C[C@@H](c1ccc(Cl)cc1)[C@@]21Cc2ccccc2C1=O
87.5%
2) [3H]N1C(=O)[C@@]2(c3ccccc31)N(C)C[C@@H](c1ccc(OC)cc1)[C@@]21Cc2ccccc2C1=O
79.8%
3) [3H]N1C(=O)[C@@]2(c3ccccc31)N(C)C[C@@H](c1cccs1)[C@@]21Cc2ccccc2C1=O
67.7%
4) [3H]C([3H])([3H])N1C(=O)[C@@]2(c3ccccc31)N(C)C[C@@H](c1cccs1)[C@@]21Cc2ccccc2C1=O
72.2%
5) [3H]N1C(=O)[C@@]2(c3ccccc31)N(C)C[C@@H](c1ccc(Cl)cc1)[C@@]21Cc2ccccc2C1=O
57%
6) [3H]C([3H])([3H])N1C(=O)[C@@]2(c3ccccc31)N(C)C[C@@H](c1ccc(OC)cc1)[C@@]21Cc2ccccc2C1=O
107%

----------
Overview of recorded growth, % of control at 10 µM for various molecules
system: A498; assay: Growth inhibition of human A498 cells at 10 uM after 48 hrs by sulforhodamine B assay; type: functional; conditions: A498, 48 h, values are per cent of control
Test readout: growth, % of control at 10 µM

1. [3H]C([3H])([3H])N1C(=O)[C@@]2(c3ccccc31)N(C)C[C@@H](c1ccc(OC)cc1)[C@@]21Cc2ccccc2C1=O
95.2%
2. [3H]N1C(=O)[C@@]2(c3ccccc31)N(C)C[C@@H](c1ccc(Cl)cc1)[C@@]21Cc2ccccc2C1=O
61.9%
3. [3H]C([3H])([3H])N1C(=O)[C@@]2(c3ccccc31)N(C)C[C@@H](c1ccc(Cl)cc1)[C@@]21Cc2ccccc2C1=O
82.3%
4. [3H]N1C(=O)[C@@]2(c3ccccc31)N(C)C[C@@H](c1ccc(OC)cc1)[C@@]21Cc2ccccc2C1=O
105%
5. [3H]N1C(=O)[C@@]2(c3ccccc31)N(C)C[C@@H](c1cccs1)[C@@]21Cc2ccccc2C1=O
102%
6. [3H]C([3H])([3H])N1C(=O)[C@@]2(c3ccccc31)N(C)C[C@@H](c1cccs1)[C@@]21Cc2ccccc2C1=O
103%
